target: CB1 receptor (Homo sapiens); experiment: NanoBiT βarr2 recruitment bioassay at CB1 (HEK 293T cells stably expressing CB1‐βarr2); conditions: read-out: EC 50 at CB1; βarr2 recruitment, three‐parameter logistic fit; interval in brackets
Sequence (P21554 whole entry): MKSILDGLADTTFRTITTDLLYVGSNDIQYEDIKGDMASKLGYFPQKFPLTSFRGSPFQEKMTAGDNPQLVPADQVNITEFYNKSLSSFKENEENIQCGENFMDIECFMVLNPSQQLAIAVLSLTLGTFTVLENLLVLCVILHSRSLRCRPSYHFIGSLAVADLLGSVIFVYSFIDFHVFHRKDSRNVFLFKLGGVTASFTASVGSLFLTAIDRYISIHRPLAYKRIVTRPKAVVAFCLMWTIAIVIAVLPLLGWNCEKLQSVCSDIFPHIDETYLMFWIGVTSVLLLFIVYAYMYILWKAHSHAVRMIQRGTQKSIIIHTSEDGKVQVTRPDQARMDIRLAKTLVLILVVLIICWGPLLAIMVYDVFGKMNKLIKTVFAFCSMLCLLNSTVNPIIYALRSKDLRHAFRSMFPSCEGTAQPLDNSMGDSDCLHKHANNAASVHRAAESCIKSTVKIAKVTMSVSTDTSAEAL
Sequence (P32121 whole entry partner): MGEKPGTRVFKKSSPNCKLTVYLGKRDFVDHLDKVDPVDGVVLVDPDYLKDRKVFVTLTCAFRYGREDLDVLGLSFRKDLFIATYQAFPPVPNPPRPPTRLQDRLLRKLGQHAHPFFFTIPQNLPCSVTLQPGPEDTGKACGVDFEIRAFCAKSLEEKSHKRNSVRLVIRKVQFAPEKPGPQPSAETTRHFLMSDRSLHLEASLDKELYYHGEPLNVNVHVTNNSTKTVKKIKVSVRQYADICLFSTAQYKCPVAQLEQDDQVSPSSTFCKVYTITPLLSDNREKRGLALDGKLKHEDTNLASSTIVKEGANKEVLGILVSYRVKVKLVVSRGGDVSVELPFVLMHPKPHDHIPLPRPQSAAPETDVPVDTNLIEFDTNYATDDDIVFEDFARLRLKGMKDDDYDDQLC

{"columns": ["Molecule", "EC50"],
 "data": [
  ["CCCCCn1cc(C(=O)c2cccc3ccccc23)c2ccccc21 [JWH‐018]", "18.8 nM"]
]}

---

biological target: CB2 receptor (Homo sapiens, UniProt P34972); experiment: NanoBiT βarr2 recruitment bioassay at CB2 (HEK 293T cells stably expressing CB2‐βarr2)
Sequence (P34972 whole entry): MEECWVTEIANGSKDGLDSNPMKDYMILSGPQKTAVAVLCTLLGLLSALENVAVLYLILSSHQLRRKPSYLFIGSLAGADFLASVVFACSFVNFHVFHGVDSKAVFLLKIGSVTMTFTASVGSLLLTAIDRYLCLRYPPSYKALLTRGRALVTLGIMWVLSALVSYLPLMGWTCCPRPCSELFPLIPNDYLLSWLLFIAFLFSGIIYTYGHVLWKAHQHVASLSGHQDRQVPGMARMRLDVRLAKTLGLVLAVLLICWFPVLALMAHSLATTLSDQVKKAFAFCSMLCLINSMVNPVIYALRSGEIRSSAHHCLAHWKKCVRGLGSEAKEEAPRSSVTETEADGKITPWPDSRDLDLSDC
Sequence (P32121 whole entry partner): as the sequence (P32121 whole entry partner) above
pEC50: −log10 of the molar value.

{"columns": ["Smiles Entry", "Study System", "pEC50"],
 "data": [
  ["COC(=O)[C@@H](NC(=O)c1n[nH]c2ccccc12)C(C)(C)C", "CB2 receptor (Homo sapiens, UniProt P34972)", 7.26]
]}
